Test system: 885724-159-R-J1-PDC KRAS PDC multicell spheroid viability;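 further: spheroids exposed to agents for 7 days before readout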
experiment-description: Anticancer human tumor 885724-159-R-J1-PDC patient-derived pancreatic adenocarcinoma cell line growth inhibition [KRAS2]
run-parameters: second compound 3.16 µM; first compound 0.01 µM; hits give low values
Classify on viability, T/C using c1: < 50%; c2: ≥ 50% and < 70%; c3: ≥ 70%

Use the examples below as a reference point.
>>> qualitative_label("CCN1CCN(Cc2ccc(Nc3ncc(F)c(-c4cc(F)c5nc(C)n(C(C)C)c5c4)n3)nc2)CC1 + CNCc1ccccc1-c1csc(C(C)Nc2nc(C)nc3cc(OC)c(OC)cc23)c1")
"c1"
>>> qualitative_label("CC1COCCN1c1cc(-c2ccnn2C)c2ccnc(-c3ccn[nH]3)c2n1 (stereo unspecified) + COc1cc2nc(C)nc(NC(C)c3cc(N)cc(C(F)(F)F)c3)c2cc1OC1CCOC1")
"c3"
>>> qualitative_label("CC(C)n1nc(-c2ccc3oc(N)nc3c2)c2c(N)ncnc21 + C=CC(=O)N1CCN(c2nc(OCC3CCCN3C)nc3c2CCN(c2cccc4cccc(C)c24)C3)CC1CC#N")
"c1"

**Q:** Kindly state the category for this compound: CC(=O)OC12COC1CC(O)C1(C)C(=O)C(O)C3=C(C)C(OC(=O)C(O)C(NC(=O)OC(C)(C)C)c4ccccc4)CC(O)(C(OC(=O)c4ccccc4)C21)C3(C)C (stereo unspecified) + COc1cc2nc(C)nc(NC(C)c3cc(N)cc(C(F)(F)F)c3)c2cc1OC1CCOC1
**A:** c3

**Q:** Kindly state the category for this compound: CCN1CCN(Cc2ccc(Nc3ncc(F)c(-c4cc(F)c5nc(C)n(C(C)C)c5c4)n3)nc2)CC1 + CC1OCC2(CCN(c3cnc(Sc4ccnc(N)c4Cl)c(N)n3)CC2)C1N
**A:** c3

**Q:** Kindly state the category for this compound: CCN1CCN(Cc2ccc(Nc3ncc(F)c(-c4cc(F)c5nc(C)n(C(C)C)c5c4)n3)nc2)CC1 + C=CC(=O)N1CCN(c2nc(=O)n(-c3c(C)ccnc3C(C)C)c3nc(-c4c(O)cccc4F)c(F)cc23)C(C)C1
**A:** c3
